biological target: Cyclin E/CDK2 (Homo sapiens, UniProt P24941); test: CDK2 FlashPlate Assay (inhibition of Rb phosphorylation by Cyclin E/CDK2); details: Table IA; recombinant human Cyclin E/CDK2, Rb substrate, 25 minutes room temperature
Items are presented alongside their recorded IC50.

Need IC50, item CCC(C)(O)C#Cc1cccc2c1/C(=C/c1[nH]ccc1OC)C(=O)N2 (racemic) [D]
< 4 µM

Others:
Reported IC50 for COc1cc[nH]c1/C=C1\C(=O)Nc2cccc(C#CCOC(N)=O)c21 [MM] : what is it?
< 4 µM

Quick one: IC50 for CCN(CC)CC#Cc1c(F)ccc2c1/C(=C/c1[nH]cnc1C)C(=O)N2 [Compound BBB] ?
< 4 µM

Look up IC50 for this compound: CCOC(=O)C(CC#Cc1c(F)ccc2c1/C(=C/c1[nH]cnc1C)C(=O)N2)NC(C)=O (racemic) [AAA]
< 4 µM

I'd like to know its IC50. The compound in question is COc1cc[nH]c1/C=C1\C(=O)Nc2cccc(C#CC3(O)CCCCC3)c21 [M]
< 4 µM

Look at this compound and give its reported IC50. COc1cc[nH]c1/C=C1\C(=O)Nc2cccc(C#CCCCCO)c21 [A]
< 4 µM

# IC50 lookup, item COC(=O)NCC#Cc1cccc2c1/C(=C/c1[nH]ccc1OC)C(=O)N2 [LL]
< 4 µM

For the compound shown here, COc1cc[nH]c1/C=C1\C(=O)Nc2cccc(C#CC3(O)CCCC3)c21 [AA] , give the reported IC50.
< 4 µM

Recorded IC50 of COCC#Cc1cccc2c1/C(=C/c1[nH]ccc1OC)C(=O)N2 [X] , please.
< 4 µM
